procedure_details: Formation of 1,5-cz-[M(Lig)] from Lig and M^III ions (metal dependent click-zip) (Charts 4, 5)
Assay type: physicochemical
assay_context: 1 hour at 80° C.; MOPS/NaOH buffer pH 7.0; TD728, TD827 in 50% i-PrOH
quantity_name: conversion to 1,5-cz-[M(Lig)], Sc^III

Sample records with conversion to 1,5-cz-[M(Lig)], Sc^III:
compound	conversion to 1,5-cz-[M(Lig)], Sc^III
CC(C)(C)C#Cc1cccc(CN2CCN(CC(=O)O)CCN(Cc3cccc(CN=[N+]=[N-])n3)CCN(CC(=O)O)CC2)n1 [TD959]	0%
C#Cc1cccc(CN2CCN(CC(=O)O)CCN(Cc3cc(C#C[Si](C(C)C)(C(C)C)C(C)C)cc(CN=[N+]=[N-])n3)CCN(CC(=O)O)CC2)n1 [TD827]	2%
C#Cc1cccc(CN2CCN(CC(=O)NCC(=O)O)CCN(Cc3cc(-c4ccccc4)cc(CN=[N+]=[N-])n3)CCN(CC(=O)NCC(=O)O)CC2)n1 [TD778]	0%

Shift focus to the following entry.
Please look up its conversion to 1,5-cz-[M(Lig)], Sc^III: [N-]=[N+]=NCc1cc(-c2ccccc2)cc(CN2CCN(CC(=O)O)CCN(Cc3cccc(C#CCN)n3)CCN(CC(=O)O)CC2)n1 [TD722]
3%

###

Measured fraction of intact chelate values are reported for all entries that follow.
procedure_details: Dissociation of chelates in aq. 6.0M HCl at 80° C. (acid decomplexation kinetic inertness) (Chart 17)
Assay type: physicochemical
assay_context: 1 hour
Just the number please, in %, no unit attached.

Sample records with fraction of intact chelate:
molecule	measurement_units	fraction of intact chelate
O=C1C[N@@]2CC[N@]3CC[N@@](CC[N@](CC2)Cc2cccc(n2)-c2cnnn2Cc2cc(-c4ccccc4)cc(n2)C3)CC(=O)[O][Yb][O]1	%	100
O=C1C[N@@]2CC[N@]3CC[N@@](CC[N@](CC2)Cc2cccc(n2)-c2cnnn2Cc2cc(-c4ccccc4)cc(n2)C3)CC(=O)[O][Er][O]1	%	99
O=P1(c2ccccc2)C[N@@]2CC[N@]3CC[N@@](CC[N@](CC2)Cc2cccc(n2)-c2cnnn2Cc2cccc(n2)C3)CP(=O)(c2ccccc2)[O][Gd][O]1 (stereo partly drawn)	%	77
O=C([O-])CN1CCN2CCN(CC(=O)[O-])CCN(CC1)Cc1cccc(n1)-c1cnnn1Cc1cc(-c3ccccc3)cc(n1)C2.[Ca+2]	%	0
O=C([O-])CN1CCN2CCN(CC(=O)[O-])CCN(CC1)Cc1cccc(n1)-c1cnnn1Cc1cc(-c3ccccc3)cc(n1)C2.[Zn+2]	%	0

Shift focus to the following entry.
Please look up its fraction of intact chelate: O=C1C[N@@]2CC[N@]3CC[N@@](CC[N@](CC2)Cc2cccc(n2)-c2cnnn2Cc2cc(-c4ccccc4)cc(n2)C3)CC(=O)[O][La][O]1
0

###

procedure_details: Formation of 1,5-cz-[Ln(Lig)] from Lig and Ln^III ions (metal dependent click-zip), MOPS/NaOH buffer pH 7.0, analytical HPLC (Charts 1, 2)
assay_context: Sm^III; after 1 hour at 80° C.; MOPS/NaOH buffer pH 7.0
Measured conversion to 1,5-cz-[Ln(Lig)] with hydrolysed group in the side chain, Sm^III values are reported for all entries that follow.

Sample records with conversion to 1,5-cz-[Ln(Lig)] with hydrolysed group in the side chain, Sm^III:
structure_notation	result
C#Cc1cccc(CN2CCN(CC(=O)O)CCN(Cc3cc(C(=O)OC)cc(CN=[N+]=[N-])n3)CCN(CC(=O)O)CC2)n1	2%
C#Cc1cccc(CN2CCN(CC(=O)O)CCN(Cc3cc(C(=O)OC(C)(C)C)cc(CN=[N+]=[N-])n3)CCN(CC(=O)O)CC2)n1	3%
CC(C)(C#Cc1cccc(CN2CCN(CC(=O)O)CCN(Cc3cccc(CN=[N+]=[N-])n3)CCN(CC(=O)O)CC2)n1)NC(=O)OC(C)(C)C	0%

Shift focus to the following entry.
Please look up its conversion to 1,5-cz-[Ln(Lig)] with hydrolysed group in the side chain, Sm^III: C#Cc1cccc(CN2CCN(CC(=O)O)CCN(Cc3cc(C(=O)OC(C)C)cc(CN=[N+]=[N-])n3)CCN(CC(=O)O)CC2)n1
0%

###

Measured conversion to 1,5-cz-[Ln(Lig)], Ho^III values are reported for all entries that follow.
procedure_details: Formation of 1,5-cz-[Ln(Lig)] from Lig and Ln^III ions (metal dependent click-zip), MOPS/NaOH buffer pH 7.0, analytical HPLC (Charts 1, 2)
assay_context: Ho^III; after 1 week at 80° C.; MOPS/NaOH buffer pH 7.0
Just the number please, in %, no unit attached.

Please look up its conversion to 1,5-cz-[Ln(Lig)], Ho^III: C#Cc1cccc(CN2CCN(CC(=O)O)CCN(Cc3cccc(CN=[N+]=[N-])n3)CCN(CC(=O)O)CC2)n1
95

Please look up its conversion to 1,5-cz-[Ln(Lig)], Ho^III: [N-]=[N+]=NCc1cccc(CN2CCN(CC(=O)O)CCN(Cc3cccc(C#CI)n3)CCN(CC(=O)O)CC2)n1
23

Please look up its conversion to 1,5-cz-[Ln(Lig)], Ho^III: [N-]=[N+]=NCc1cccc(CN2CCN(CC(=O)O)CCN(Cc3cccc(C#Cc4ccccc4)n3)CCN(CC(=O)O)CC2)n1
68

Please look up its conversion to 1,5-cz-[Ln(Lig)], Ho^III: C#Cc1cccc(CN2CCN(CC(=O)O)CCN(Cc3cc(-c4ccccc4)cc(CN=[N+]=[N-])n3)CCN(CC(=O)O)CC2)n1
95

Please look up its conversion to 1,5-cz-[Ln(Lig)], Ho^III: C#Cc1cccc(CN2CCN(CP(=O)(O)OCC)CCN(Cc3cccc(CN=[N+]=[N-])n3)CCN(CP(=O)(O)OCC)CC2)n1
79

Please look up its conversion to 1,5-cz-[Ln(Lig)], Ho^III: C#CCNC(=O)CN1CCN(CC(=O)O)CCN(Cc2cc(-c3ccccc3)cc(CN=[N+]=[N-])n2)CCN(CC(=O)O)CC1
0

###

procedure_details: Dissociation of chelates in aq. 1.0M HCl at 80° C. (acid decomplexation kinetic inertness) (Chart 18)
Type: physicochemical
assay_context: 1 day
quantity_name: fraction of intact chelate (%)
Just the number please, in %, no unit attached.

Sample records with fraction of intact chelate:
structure_notation	quantity_name	readout_number
O=C1C[N@@]2CC[N@]3CC[N@@](CC[N@](CC2)Cc2cccc(n2)-c2cnnn2Cc2cc(-c4ccccc4)cc(n2)C3)CC(=O)[O][Tb][O]1	fraction of intact chelate	96
O=C1C[N@@]2CC[N@]3CC[N@@](CC[N@](CC2)Cc2cccc(n2)-c2cn(nn2)Cc2cc(-c4ccccc4)cc(n2)C3)CC(=O)[O][Lu][O]1	fraction of intact chelate	0
O=C1C[N@@]2CC[N@]3CC[N@@](CC[N@](CC2)Cc2cccc(n2)-c2cnnn2Cc2cc(-c4ccccc4)cc(n2)C3)CC(=O)[O][Eu][O]1	fraction of intact chelate	10
O=C1C[N@@]2CC[N@]3CC[N@@](CC[N@](CC2)Cc2cccc(n2)-c2cnnn2Cc2cc(-c4ccccc4)cc(n2)C3)CC(=O)[O][Sm][O]1	fraction of intact chelate	0
O=C1C[N@@]2CC[N@]3CC[N@@](CC[N@](CC2)Cc2cccc(n2)-c2cnnn2Cc2cc(-c4ccccc4)cc(n2)C3)CC(=O)[O][Lu][O]1	fraction of intact chelate	100

Shift focus to the following entry.
Please look up its fraction of intact chelate: O=C1C[N@@]2CC[N@]3CC[N@@](CC[N@](CC2)Cc2cccc(n2)-c2cnnn2Cc2cc(-c4ccccc4)cc(n2)C3)CC(=O)[O][Y][O]1
100

###

Measured fraction of intact chelate values are reported for all entries that follow.
procedure_details: Dissociation of chelates in aq. 0.1M HCl at 80° C. (acid decomplexation kinetic inertness) (Chart 19)
Type: physicochemical
assay_context: 1 month
Just the number please, in %, no unit attached.

Sample records with fraction of intact chelate:
molecule	measurement_units	readout_number
O=P1(c2ccccc2)C[N@@]2CC[N@]3CC[N@@](CC[N@](CC2)Cc2cccc(n2)-c2cnnn2Cc2cccc(n2)C3)CP(=O)(c2ccccc2)[O][Gd][O]1 (stereo partly shown) [TD925]	%	60
O=C([O-])CN1CCN2CCN(CC(=O)[O-])CCN(CC1)Cc1cccc(n1)-c1cnnn1Cc1cc(-c3ccccc3)cc(n1)C2.[Pb+2] [TD876]	%	0

Please look up its fraction of intact chelate: O=C1C[N@@]2CC[N@]3CC[N@@](CC[N@](CC2)Cc2cccc(n2)-c2cnnn2Cc2cc(-c4ccccc4)cc(n2)C3)CC(=O)[O][Lu][O]1 [TD522]
100

Please look up its fraction of intact chelate: O=C1C[N@@]2CC[N@]3CC[N@@](CC[N@](CC2)Cc2cccc(n2)-c2cnnn2Cc2cc(-c4ccccc4)cc(n2)C3)CC(=O)[O][Tm][O]1 [TD601]
100

Please look up its fraction of intact chelate: O=C1C[N@@]2CC[N@]3CC[N@@](CC[N@](CC2)Cc2cccc(n2)-c2cnnn2Cc2cc(-c4ccccc4)cc(n2)C3)CC(=O)[O][Ho][O]1 [TD648]
100

Please look up its fraction of intact chelate: O=C1C[N@@]2CC[N@]3CC[N@@](CC[N@](CC2)Cc2cccc(n2)-c2cnnn2Cc2cc(-c4ccccc4)cc(n2)C3)CC(=O)[O][Gd][O]1 [TD527]
82

Please look up its fraction of intact chelate: O=C1C[N@@]2CC[N@]3CC[N@@](CC[N@](CC2)Cc2cccc(n2)-c2cn(nn2)Cc2cc(-c4ccccc4)cc(n2)C3)CC(=O)[O][Cd][O]1 [TD900]
0

Please look up its fraction of intact chelate: O=C1C[N@@]2CC[N@]3CC[N@@](CC[N@](CC2)Cc2cccc(n2)-c2cnnn2Cc2cc(-c4ccccc4)cc(n2)C3)CC(=O)[O][Nd][O]1 [TD868]
0

Please look up its fraction of intact chelate: O=C1C[N@@]2CC[N@]3CC[N@@](CC[N@](CC2)Cc2cccc(n2)-c2cnnn2Cc2cc(-c4ccccc4)cc(n2)C3)CC(=O)[O][Tb][O]1 [TD600]
99

Please look up its fraction of intact chelate: O=C1C[N@@]2CC[N@]3CC[N@@](CC[N@](CC2)Cc2cccc(n2)-c2cn(nn2)Cc2cc(-c4ccccc4)cc(n2)C3)CC(=O)[O][Lu][O]1 [TD874]
0

Origin of the recorded values: patent US20250147039A1
